# System: Danio rerio larvae (5 dpf)
# Assay: difference in habituation to acoustic stimuli vs DMSO (percentage points); higher = more habituation than DMSO
# Test Conditions: 10 µM; exposure time 6 h
Counter-ions that a name gives are not always drawn.
Would you kindly list difference in habituation to acoustic stimuli for each of these compounds?
Answer with a bare number; do not write a unit.

Input: Under Danio rerio larvae (5 dpf), report difference in habituation to acoustic stimuli for COC(=O)Nc1nc2cc(C(=O)c3ccccc3)ccc2[nH]1 [Mebendazole]
Output: 0.057

Input: Under Danio rerio larvae (5 dpf), report difference in habituation to acoustic stimuli for CC(C)(C)NC(=O)[C@@H]1CN(Cc2cccnc2)CCN1C[C@@H](O)C[C@@H](Cc1ccccc1)C(=O)N[C@H]1c2ccccc2C[C@H]1O [Indinavir (sulfate)]
Output: 11.2

Input: Under Danio rerio larvae (5 dpf), report difference in habituation to acoustic stimuli for CCCc1nn(C)c2c(=O)[nH]c(-c3cc(S(=O)(=O)N4CCN(C)CC4)ccc3OCC)nc12 [Sildenafil Citrate]
Output: -0.835

Input: Under Danio rerio larvae (5 dpf), report difference in habituation to acoustic stimuli for CCCC(CCC)C(=O)O [Valproic Acid (sodium salt)]
Output: -8.1

Input: Under Danio rerio larvae (5 dpf), report difference in habituation to acoustic stimuli for NC1=NCC2c3ccccc3Cc3ccccc3N12 (stereo not drawn) [Epinastine (hydrochloride)]
Output: 4.49

Input: Under Danio rerio larvae (5 dpf), report difference in habituation to acoustic stimuli for CN1CC(=O)N2[C@H](c3ccc4c(c3)OCO4)c3[nH]c4ccccc4c3C[C@@H]2C1=O [Tadalafil]
Output: 3.67

Input: Under Danio rerio larvae (5 dpf), report difference in habituation to acoustic stimuli for CC12CC3CC(C)(C1)CC(N)(C3)C2 [Memantine (hydrochloride)]
Output: 2.49

Input: Under Danio rerio larvae (5 dpf), report difference in habituation to acoustic stimuli for CCN(CC)CC(=O)Nc1c(C)cccc1C [Lidocaine]
Output: -4.04
